Source of measurements: ChEMBL document CHEMBL2057163

- Assay method text: Cytotoxicity against human hepatoma cells assessed as decrease in GAPDH RNA level after 3 days by RT-PCR analysis
- Format: cell-based

{"columns": ["Chemical smiles", "Qualifier operator", "CC50 at 72 h [µM]"],
 "data": [
  ["CCc1cc2cc(-c3c(C)nc(NCC(C)C)nc3N[C@@H]3C[C@H](CO)[C@@H](O)[C@H]3O)oc2cn1", "=", 7],
  ["Cc1nccc2cc(-c3c(Cl)nc(N)nc3N[C@@H]3C[C@H](CO)[C@@H](O)[C@H]3O)oc12", ">", 25],
  ["Nc1nc(Cl)c(-c2cc3ccncc3o2)c(N[C@@H]2C[C@H](CO)[C@@H](O)[C@H]2O)n1", "=", 25],
  ["CCc1cc2cc(-c3c(Cl)nc(N)nc3N[C@@H]3C[C@H](CO)[C@@H](O)[C@H]3O)oc2c(CC)n1", "=", 25],
  ["CCc1cc2cc(-c3c(Cl)nc(N)nc3N[C@@H]3C[C@H](CO)[C@@H](O)[C@H]3O)oc2c(C)n1", "=", 13],
  ["CCc1cc2cc(-c3c(C)nc(NC)nc3N[C@@H]3C[C@H](CO)[C@@H](O)[C@H]3O)oc2cn1", ">", 25],
  ["CCc1cc2cc(-c3c(C)nc(NCCCC(F)(F)F)nc3N[C@@H]3C[C@H](CO)[C@@H](O)[C@H]3O)oc2cn1", "=", 17],
  ["CCCCCNc1nc(C)c(-c2cc3cc(CC)ncc3o2)c(N[C@@H]2C[C@H](CO)[C@@H](O)[C@H]2O)n1", "=", 3]
]}

----------
Consider the following molecules and their measured CC50 at 72 h readings.
- Assay method text: Cytotoxicity against human hepatoma cells assessed as inhibition of [14C]thymidine incorporation after 3 days by scintillation proximity assay
- Type: cell-based
Value type: CC50 at 72 h (µM)

{"columns": ["Chemical smiles", "Readout value"],
 "data": [
  ["CCOc1cc2cc(-c3c(C)nc(NCC4CC4)nc3N[C@@H]3C[C@H](CO)[C@@H](O)[C@H]3O)oc2c(C)n1.Cl", 5],
  ["CCc1cc2cc(-c3c(C)nc(NCC(F)(F)F)nc3N[C@@H]3C[C@H](CO)[C@@H](O)[C@H]3O)oc2cn1.Cl", 4]
]}

----------
- Assay method text: Selectivity ratio of CC50 for human hepatoma cells by MTS assay to EC50 for Hepatitis C virus 1b con1
- Format: ADME
- Particulars: read-out: Ratio CC50/EC50

{"columns": ["Chemical smiles", "selectivity ratio"],
 "data": [
  ["CNc1nc(Cl)c(-c2cc3cc(OC)nc(C)c3o2)c(N[C@@H]2C[C@H](CO)[C@@H](O)[C@H]2O)n1", "> 1000"]
]}

----------
- Assay method text: Cytotoxicity against human hepatoma cells assessed as decrease in GAPDH RNA level after 3 days by RT-PCR analysis
- Assay type: cell-based
# label = 1 if CC50 at 72 h < 10 µM else -1

{"columns": ["Chemical smiles", "Assigned class"],
 "data": [
  ["CNc1nc(Cl)c(-c2cc3cc(OC)nc(C)c3o2)c(N[C@@H]2C[C@H](CO)[C@@H](O)[C@H]2O)n1", -1],
  ["Cc1cc2cc(-c3c(Cl)nc(N)nc3N[C@@H]3C[C@H](CO)[C@@H](O)[C@H]3O)oc2cn1", 1],
  ["CCOc1cc2cc(-c3c(C)nc(NCC(C)(C)C)nc3N[C@@H]3C[C@H](CO)[C@@H](O)[C@H]3O)oc2c(C)n1", -1],
  ["CCc1cc2cc(-c3c(Cl)nc(N)nc3N[C@@H]3C[C@H](CO)[C@@H](O)[C@H]3O)oc2cn1", -1],
  ["CCc1nccc2cc(-c3c(Cl)nc(N)nc3N[C@@H]3C[C@H](CO)[C@@H](O)[C@H]3O)oc12", -1],
  ["CCc1nc(C)cc2cc(-c3c(Cl)nc(N)nc3N[C@@H]3C[C@H](CO)[C@@H](O)[C@H]3O)oc12", 1],
  ["CCOc1cc2cc(-c3c(C)nc(Nc4ccccc4)nc3N[C@@H]3C[C@H](CO)[C@@H](O)[C@H]3O)oc2c(C)n1", -1],
  ["CCOc1cc2cc(-c3c(C)nc(NCC(F)(F)F)nc3N[C@@H]3C[C@H](CO)[C@@H](O)[C@H]3O)oc2c(C)n1", -1],
  ["CCOc1cc2cc(-c3c(C)nc(NCC4CC4)nc3N[C@@H]3C[C@H](CO)[C@@H](O)[C@H]3O)oc2c(C)n1", -1],
  ["CCOc1cc2cc(-c3c(C)nc(NCc4cc(OC)cc(OC)c4)nc3N[C@@H]3C[C@H](CO)[C@@H](O)[C@H]3O)oc2c(C)n1", -1],
  ["CCOCCNc1nc(C)c(-c2cc3cc(CC)ncc3o2)c(N[C@@H]2C[C@H](CO)[C@@H](O)[C@H]2O)n1", 1],
  ["CCOc1cc2cc(-c3c(C)nc(NCCOC)nc3N[C@@H]3C[C@H](CO)[C@@H](O)[C@H]3O)oc2c(C)n1", -1],
  ["Cc1cc2cc(-c3c(Cl)nc(N)nc3N[C@@H]3C[C@H](CO)[C@@H](O)[C@H]3O)oc2c(C)n1.Cl", -1]
]}
